# METHOD_NOTES: Volume of distribution at steady state in Sprague-Dawley rat at 1 mg/kg, iv and 4 mg/kg, po
# Assay type: ADME, organism-based
# STUDY_CONDITIONS: in vivo, read-out: Vdss
QUANTITY_MEASURED: Vd (L/kg)
Your answer is read as L/kg, so omit the unit and give the number.

Lookup result for CC(=O)NC(C)(C)[C@@H]1CC2(CCN(C(=O)[C@@H]3CN(C(C)(C)C)C[C@H]3c3ccc(F)cc3F)CC2)c2cc(Cl)c(C)cc21 ; measured Vd: 5.1

====

# TEST_TARGET: Melanocortin receptor 3 (Homo sapiens)
# Sequence (P41968 whole entry): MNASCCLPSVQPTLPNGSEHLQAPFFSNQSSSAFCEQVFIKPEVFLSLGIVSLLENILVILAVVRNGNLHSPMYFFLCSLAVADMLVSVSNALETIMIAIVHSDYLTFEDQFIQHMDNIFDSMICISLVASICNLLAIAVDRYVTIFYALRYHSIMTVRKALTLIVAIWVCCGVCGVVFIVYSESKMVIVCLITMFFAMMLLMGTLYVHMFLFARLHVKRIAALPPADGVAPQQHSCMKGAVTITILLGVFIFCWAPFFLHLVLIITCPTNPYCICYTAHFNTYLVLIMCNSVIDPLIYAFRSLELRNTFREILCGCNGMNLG
# METHOD_NOTES: Agonist activity at human MC3R expressed in CHO cells assessed as stimulation of intracellular cAMP accumulation
QUANTITY_MEASURED: pEC50
Scale: negative log10 of molar concentration, which is what pEC50 denotes.

Lookup result for CC(=O)NC(C)(C)[C@@H]1CC2(CCN(C(=O)[C@@H]3CN(C(C)(C)C)C[C@H]3c3ccc(F)cc3F)CC2)c2cc(Cl)c(C)cc21 ; measured pEC50: 6.45

====

# METHOD_NOTES: Half life in rhesus monkey at 0.5 mg/kg, iv and 2 mg/kg, po
# Type: ADME, organism-based, Macaca mulatta
# STUDY_CONDITIONS: in vivo
QUANTITY_MEASURED: half-life (h)
Your answer is read as h, so omit the unit and give the number.

Lookup result for CC(=O)NC(C)(C)[C@@H]1CC2(CCN(C(=O)[C@@H]3CN(C(C)(C)C)C[C@H]3c3ccc(F)cc3F)CC2)c2cc(Cl)c(C)cc21 ; measured half-life: 3.9
